Data origin: PubChem BioAssay

- TARGET: Luciferin 4-monooxygenase (Photinus pyralis)
- EXPERIMENT: firefly luciferase enzyme inhibitors, primary screen, biochemical, luminescence, purified enzyme, 2006 set (AID 1141);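 further: cell-free assay with purified firefly luciferase at 100 ng per well in PBS; test concentration not given here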
- CONDITION PARAMETERS: SteadyGlo luminescence, 30 min, higher = more signal, called active from +8 up or from −8 down
Mark FALSE for z-score values under -0.3, and TRUE for everything at or above.

>>> category("C=C(CCCC)/C(=C/C[C@@H](OC(C)=O)c1ccccc1OCCO)c1cnc2ccccc2c1")
"FALSE"

input: Threshold query (z-score >= -0.3) on CN1C(=O)[C@]2(Cc3ccccc3)N=C(c3ccc(OCCCO)cc3)O[C@@H]2c2ccccc21
output: FALSE

input: Does [N-]=[N+]=NCc1ccccc1[C@@H]1OC(c2ccc(OCCCO)cc2)=N[C@]1(CCS(=O)(=O)c1ccccc1)C(=O)NCCN1CCOCC1 have a reported z-score of at least -0.3?
output: FALSE

input: Threshold query (z-score >= -0.3) on CC[C@@H]1C=C(C(=O)O)[C@H](c2ccco2)N1S(=O)(=O)c1ccc(C)cc1
output: TRUE

input: Check the entry O=C1OCC=C[C@H]2OC34C=CCN(CCN5CCOCC5)C(=O)[C@H]3N(CCCO)C(=O)[C@@H]4[C@@H]12 (stereo partly specified) : does z-score equal or exceed -0.3?
output: TRUE

input: Would you say C=C(CCCC)C(=O)CC[C@@H](OC(=O)c1cccnc1)c1ccc(CO)o1 shows z-score at minimum -0.3?
output: FALSE
